meta.source: patent US8796244B2

# Tested on: LP-1 cell line (FGF-1/Heparin induced pERK)
# test: Cell-based pERK ELISA, LP-1 cells
# conditionNotes: Homo sapiens, LP-1, read-out: LP-1 pERK ELISA (μM)
Structures can show the parent of a compound that is named as a salt.
assayReadout: IC50 (µM)
Answers are plain numbers, in µM.

Illustrative cases are given below, each with its answer.
[[record]]
molecule = "O=C(NCC(F)(F)F)Nc1cncc(-c2cnc3cc(-c4ncccn4)ccn23)c1 [Example 35, hydrochloride]"
assayreadout = "IC50"
measured = 0.33

[[record]]
molecule = "CN(C)CC#Cc1ccn2c(-c3cccc(NC(=O)NCC(F)(F)F)c3)cnc2c1"
assayreadout = "IC50"
measured = 0.1

[[record]]
molecule = "O=C(NCC(F)(F)F)Nc1cccc(-c2cnc3cc(-c4ccc(CCO)cc4)ccn23)c1 [Example 111, formate]"
assayreadout = "IC50"
measured = 0.016


Turning now to a further record.
Given the molecule `O=C(NCC(F)(F)F)Nc1cccc(-c2cnc3cc(-c4ncc(F)c(NCCO)n4)ccn23)c1` , what is its reported IC50? 0.26
